Molecular target: AR (Homo sapiens)
Construct: expressed in transfected cells; host or cells: CV1 cells
Sequence (P10275 whole entry): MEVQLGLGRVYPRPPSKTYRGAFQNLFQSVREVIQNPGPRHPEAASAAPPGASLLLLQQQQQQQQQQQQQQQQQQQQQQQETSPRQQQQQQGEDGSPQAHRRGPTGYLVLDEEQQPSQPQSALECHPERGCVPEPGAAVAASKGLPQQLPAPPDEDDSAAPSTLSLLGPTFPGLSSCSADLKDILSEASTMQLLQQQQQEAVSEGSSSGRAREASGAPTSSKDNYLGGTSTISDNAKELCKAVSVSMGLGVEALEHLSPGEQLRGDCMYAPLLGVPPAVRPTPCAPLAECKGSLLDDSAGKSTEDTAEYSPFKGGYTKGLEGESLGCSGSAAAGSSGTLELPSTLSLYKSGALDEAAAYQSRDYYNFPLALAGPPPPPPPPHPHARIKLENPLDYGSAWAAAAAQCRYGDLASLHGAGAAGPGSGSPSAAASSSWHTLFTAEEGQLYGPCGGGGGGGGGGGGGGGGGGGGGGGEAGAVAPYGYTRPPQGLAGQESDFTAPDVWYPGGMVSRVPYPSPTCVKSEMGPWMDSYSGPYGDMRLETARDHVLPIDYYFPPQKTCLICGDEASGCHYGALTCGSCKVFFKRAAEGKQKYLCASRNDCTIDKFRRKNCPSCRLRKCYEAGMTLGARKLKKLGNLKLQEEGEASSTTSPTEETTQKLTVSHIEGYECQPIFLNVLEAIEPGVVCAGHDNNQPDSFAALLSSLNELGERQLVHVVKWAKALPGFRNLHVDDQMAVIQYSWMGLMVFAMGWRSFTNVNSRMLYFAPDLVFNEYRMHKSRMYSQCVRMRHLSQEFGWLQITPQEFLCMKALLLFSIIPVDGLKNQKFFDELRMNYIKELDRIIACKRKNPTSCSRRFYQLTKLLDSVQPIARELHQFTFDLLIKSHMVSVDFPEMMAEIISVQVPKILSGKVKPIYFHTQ
Experiment: Reporter gene assay, AR transcriptional (MMTV-Luc) in CV1 cells
Format: cell-based
Settings: pcDNA-AR + MMTV-Luc, 0.1 nM R1881 plus test compound, 24 hrs, read-out: B1 = AR transcriptional IC50 (μM) in CV1 cells
parameter measured: IC50 (µM)
Numbers only, in µM.

{"compound": "CC1(C)CC(=O)C2=C(C1)Nc1ccc3ccccc3c1C2c1cc2ccccc2s1 (racemic) [Compound A95]", "experimental target": "AR (Homo sapiens)", "parameter measured": "IC50", "endpoint value": 0.5}

Record IC50 per entry; entries follow.
1. CC1(C)CC(=O)C2=C(C1)Nc1ccc3ncccc3c1C2c1ccc(F)c(F)c1 (stereo not shown) [Compound A32]
2. CC1(C)CC(=O)C2=C(C1)Nc1ccc3ncccc3c1C2c1cc(Br)cs1 (stereo not shown) [Compound A61]
3. CC1CC(=O)C2=C(C1)Nc1ccc3ncccc3c1C2c1ccc([N+](=O)[O-])cc1 (stereo not shown) [Compound A26]
4. CC1(C)CC(=O)C2=C(C1)Nc1ccc3ncncc3c1C2c1ccc(Cl)s1 (racemic) [Compound A101]

Response:
1. 0.4
2. 1.8
3. 0.43
4. 0.8

Record IC50 per entry; entries follow.
1. CC1(C)CC(=O)C2=C(C1)Nc1ccc3ncccc3c1C2c1ccc(Cl)cc1Cl (racemic) [Compound A88]
2. CC1(C)CC(=O)C2=C(C1)Nc1ccc3cnccc3c1C2c1ccc(F)c(F)c1 (racemic) [Compound A91]
3. CC1(C)CC(=O)C2=C(C1)Nc1ccc3cnccc3c1C2c1ccc([N+](=O)[O-])cc1 (stereo not shown) [Compound A43]

Response:
1: 1.1; 2: 1.4; 3: 9.1

Form field IC50 for item CC1(C)CC(=S)C2=C(C1)Nc1ccc3ncccc3c1C2c1ccc(F)c(F)c1 (racemic) [Compound A82] on AR (Homo sapiens): 9.1
